# PROCEDURE_TEXT: Single ascending dose and food-effect pharmacokinetics of naringin tablets in healthy humans
# Assay type: in vivo, human
# CONDITION_SET: female, human, plasma, po, 40 mg, naringin 40 mg p.o. single dose
OBSERVED_PROPERTY: Cmax (ng/mL)
Answer format: numeric, ng/mL implied, no suffix.

QUERY: # lookup: Cmax of C[C@@H]1O[C@@H](O[C@H]2[C@H](Oc3cc(O)c4c(c3)O[C@H](c3ccc(O)cc3)CC4=O)O[C@H](CO)[C@@H](O)[C@@H]2O)[C@H](O)[C@H](O)[C@H]1O [naringin, Naringin]
RESULT: 1.92

* * *

# PROCEDURE_TEXT: Single-dose pharmacokinetics in rats (plasma, UHPLC/MS/MS)
# Assay type: in vivo, Sprague Dawley rats
# CONDITION_SET: female, Sprague Dawley, rat, plasma, iv, 42 mg/kg
OBSERVED_PROPERTY: AUC(0-inf) (ng·h/mL)
Answer format: numeric, ng·h/mL implied, no suffix.

QUERY: # lookup: AUC(0-inf) of `C[C@@H]1O[C@@H](O[C@H]2[C@H](Oc3cc(O)c4c(c3)O[C@H](c3ccc(O)cc3)CC4=O)O[C@H](CO)[C@@H](O)[C@@H]2O)[C@H](O)[C@H](O)[C@H]1O`
RESULT: 14800

* * *

# PROCEDURE_TEXT: Single ascending dose and food-effect pharmacokinetics of naringin tablets in healthy humans
# Type: in vivo, human
# CONDITION_SET: both sexes, human, plasma, po, 80 mg, naringin 80 mg p.o. single dose
OBSERVED_PROPERTY: half-life (h)
Answer format: numeric, h implied, no suffix.

QUERY: # lookup: half-life of `C[C@@H]1O[C@@H](O[C@H]2[C@H](Oc3cc(O)c4c(c3)O[C@H](c3ccc(O)cc3)CC4=O)O[C@H](CO)[C@@H](O)[C@@H]2O)[C@H](O)[C@H](O)[C@H]1O`
RESULT: 1.9

* * *

# PROCEDURE_TEXT: Single ascending dose and food-effect pharmacokinetics of naringin tablets in healthy humans
# Type: in vivo, human
# CONDITION_SET: female, human, plasma, po, 160 mg, naringin 160 mg p.o. single dose, high-fat diet group, human, female
OBSERVED_PROPERTY: AUC(0-t) (ng·h/mL)
Answer format: numeric, ng·h/mL implied, no suffix.

QUERY: # lookup: AUC(0-t) of C[C@@H]1O[C@@H](O[C@H]2[C@H](Oc3cc(O)c4c(c3)O[C@H](c3ccc(O)cc3)CC4=O)O[C@H](CO)[C@@H](O)[C@@H]2O)[C@H](O)[C@H](O)[C@H]1O [naringin, Naringin]
RESULT: 16.1

* * *

# PROCEDURE_TEXT: Multiple-dose pharmacokinetics in dogs
# Format: in vivo, Beagle dogs
# CONDITION_SET: naringin 12.4 mg kg^-1 multiple dose, dog, male
OBSERVED_PROPERTY: CavSS
Enter the number, and then the unit.

O=C1C[C@@H](c2ccc(O)cc2)Oc2cc(O)cc(O)c21
49 ng/mL

Read the next record carefully.
QUERY: # lookup: CavSS of `C[C@@H]1O[C@@H](O[C@H]2[C@H](Oc3cc(O)c4c(c3)O[C@H](c3ccc(O)cc3)CC4=O)O[C@H](CO)[C@@H](O)[C@@H]2O)[C@H](O)[C@H](O)[C@H]1O`
RESULT: 15.1 ng/mL
